tested-target: CRTH2 receptor (Homo sapiens)
Sequence (Q9Y5Y4 whole entry): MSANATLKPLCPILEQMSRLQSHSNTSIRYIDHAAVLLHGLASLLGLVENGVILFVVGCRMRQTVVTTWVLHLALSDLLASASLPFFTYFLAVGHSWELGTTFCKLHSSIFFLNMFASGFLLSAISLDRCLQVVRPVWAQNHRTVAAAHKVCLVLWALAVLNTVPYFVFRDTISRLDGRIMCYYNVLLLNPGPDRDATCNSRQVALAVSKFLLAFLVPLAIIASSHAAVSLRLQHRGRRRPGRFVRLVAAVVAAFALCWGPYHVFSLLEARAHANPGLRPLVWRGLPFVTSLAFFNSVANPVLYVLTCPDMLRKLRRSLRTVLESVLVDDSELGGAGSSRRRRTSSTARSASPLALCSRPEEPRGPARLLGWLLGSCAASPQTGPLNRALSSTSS
Overview of reported pKi across a group of compounds:
# pKi is unitless: minus log10 of the molar concentration; print number only

Here's what some known entries look like.
Cc1c(Cc2cccc(S(=O)(=O)Cc3ccc(F)cc3)c2)c2cc(F)ccc2n1CC(=O)O [Compound 4]    9.00
Cc1c(Cc2ccc(S(=O)(=O)Cc3ccc(F)cc3)cc2)c2cc(F)ccc2n1CC(=O)O [Compound 6]    8.52

Please find the next compound below.
Prompt: For CRTH2 receptor (Homo sapiens), provide pKi of Cc1c(Cc2ccccc2S(=O)(=O)Cc2ccccc2)c2cc(F)ccc2n1CC(=O)O [Compound 5] please.
Response: 8.52

Reference source for all entries: patent US20100022613A1
